Target: human P2X2/3 receptor (Homo sapiens (Human), UniProt P56373+Q9UBL9)
Sequence (P56373 whole entry): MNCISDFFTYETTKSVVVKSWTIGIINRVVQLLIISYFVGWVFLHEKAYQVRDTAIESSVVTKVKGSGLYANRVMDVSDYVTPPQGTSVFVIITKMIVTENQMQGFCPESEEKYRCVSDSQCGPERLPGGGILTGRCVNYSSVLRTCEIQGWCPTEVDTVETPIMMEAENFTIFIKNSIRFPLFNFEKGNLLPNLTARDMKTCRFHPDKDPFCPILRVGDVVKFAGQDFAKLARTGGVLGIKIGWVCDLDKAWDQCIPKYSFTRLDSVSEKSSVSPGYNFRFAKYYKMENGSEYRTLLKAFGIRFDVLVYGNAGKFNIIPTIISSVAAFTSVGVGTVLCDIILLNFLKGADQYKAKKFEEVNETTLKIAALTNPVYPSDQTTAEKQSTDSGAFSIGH
Sequence (Q9UBL9 whole entry): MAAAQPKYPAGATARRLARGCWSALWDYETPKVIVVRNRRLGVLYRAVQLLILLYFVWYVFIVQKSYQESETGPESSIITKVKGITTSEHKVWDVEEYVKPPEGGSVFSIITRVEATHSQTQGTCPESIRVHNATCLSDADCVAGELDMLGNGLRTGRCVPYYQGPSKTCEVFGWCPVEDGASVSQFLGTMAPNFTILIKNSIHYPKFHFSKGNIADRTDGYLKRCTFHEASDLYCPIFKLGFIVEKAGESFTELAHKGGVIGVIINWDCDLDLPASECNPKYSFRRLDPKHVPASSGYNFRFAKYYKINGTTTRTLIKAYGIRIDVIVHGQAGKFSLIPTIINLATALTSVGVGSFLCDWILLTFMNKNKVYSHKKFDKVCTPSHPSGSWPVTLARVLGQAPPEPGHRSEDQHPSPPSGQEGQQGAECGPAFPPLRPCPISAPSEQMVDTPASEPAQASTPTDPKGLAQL
Assay: Intracellular calcium measurement (FLIPR, Fluo-4) of antagonist activity at human P2X2/3 receptors
Format: cell-based
Conditions: human P2X2/3, FLIPR calcium assay, agonist α,β-Me-ATP; read-out: hP2X2/3 IC50
Experimental: Intracellular Calcium Measurement to Assess Antagonist Activity at Human P2X3 and Human P2X2/3 Receptors A fluorescent imaging plate reader (FLEX/FLIPR station; Molecular Devices) was used to monitor intracellular calcium levels using the calcium-chelating dye Fluo-4 (Molecular Probes). […] The fluorescence was measured for an interval of 90 sec at 2 sec intervals and analyzed based on the increase in peak relative fluorescence units (RFU) compared to the basal fluorescence. […]
pIC50: −log10 of the molar value.

| Molecule | Qualifier | pIC50 |
| --- | --- | --- |
| Cc1cnc(-c2cc(OCC3CNC3)cc(C(=O)N[C@H](C)c3cnc(C(F)(F)F)nc3)c2)s1 [Example 394] | = | 5.40 |
| Cc1cnc(-c2cc(OCCn3cncn3)cc(C(=O)N[C@H](C)c3cnc(C(F)(F)F)nc3)c2)s1 [Example 159] | = | 5.91 |
| Cc1cnc(-c2cc(OC[C@@H]3COCCN3C)cc(C(=O)N[C@H](C)c3ccc(C(F)(F)F)nn3)c2)s1 [Example 389] | = | 5.79 |
| Cc1cnc(-c2cc(OC3COC3)cc(C(=O)NC(C)c3nnc(C(F)(F)F)s3)c2)s1 (single isomer, unassigned) [Example 193] | ≤ | 5.00 |
| CC[C@@H](NC(=O)c1cc(OC2CCOCC2)cc(-c2ncc(C)s2)c1)c1cnc(C(F)(F)F)nc1 [Example 90] | = | 6.15 |
| Cc1cnc(-c2cc(OC3CN(C(C)C)C3)cc(C(=O)N[C@H](C)c3cnc(C(F)(F)F)nc3)c2)s1 [Example 229] | = | 5.64 |
| Cc1cnc(-c2cc(OC[C@@]3(F)CCCNC3)cc(C(=O)N[C@H](C)c3cnc(C(F)(F)F)nc3)c2)s1 [Example 354] | = | 5.99 |
